Biological target: Troponin I, cardiac muscle (Homo sapiens) + Troponin T, cardiac muscle (Homo sapiens) + Troponin C, slow skeletal and cardiac muscles (Homo sapiens) (UniProt P19429+P45379+P63316)
Assay: cardiac RTF calcium sensitivity activators, confirmation, biochemical, IANBD-TnC fluorescence, triplicate (AID 504383);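 further: 0% = DMSO at 0.472 mM calcium and 100% = DMSO at 2.9 mM calcium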
Settings: IANBD-labeled cardiac RTF, Ca2+ sensitivity fluorescence; at 7.2 µM; hits give high values; scaled from EC20 to saturating calcium; tested at EC20 calcium, 0.472 mM
Among all 2,500 compounds or so, about 1,200 (48%) were called active. So high a share suggests a set chosen from earlier hits. Some of the results follow.
TEST_READOUT: activation (%)

* CCCCN=C1N/C(=C\c2ccco2)C(=O)N1c1ccccc1 | 370
* COc1ccc(Cl)cc1-c1nc(SCC(=O)NC(C)C)n[nH]1 | 8.01
* Cn1cc(C2=C(c3ccc(Cl)cc3Cl)C(=O)NC2=O)c2ccccc21 | 32.9
* O=C1S/C(=C\c2ccc(N3CCOCC3)o2)C(=O)N1c1ccccc1 | 62.9
* Cc1nc(-c2ccc(C#N)cc2)cs1 | 8.7
* C=CCOc1ccc(CNc2ccc3[nH]c(=O)[nH]c3c2)cc1OCC | 25
* C[C@H]1COc2c(N3CCN(C)CC3)c(F)cc3c(=O)c(C(=O)O)cn1c23 | 6.23
* COc1cccc(OC)c1C(=O)NNC(=O)c1ccccc1-n1cccc1 | -0.16
* Cc1cc(NC(=O)CN2C(=O)[C@@H]3[C@H](C2=O)[C@@H]2C[C@H]3C(Br)C2Br)no1 (some centres not stated) | 40
* CC(C)OC(=O)CN1C(=O)S/C(=C/c2ccc(N3CCCCC3)o2)C1=O | 13
* CCCN1C(=O)S/C(=C\c2ccc(N3CCOCC3)o2)C1=O | 1.26
* Cc1ccc(C)c(C(=O)CSc2n[nH]c(C(C)C)n2)c1 | 128
* CN(Cc1ccccc1)C(=O)c1[nH]cnc1C(=O)NCc1ccccc1 | 59.9
* CCOCCCNc1ccc(-c2ccccc2)nn1 | 8.24
* CC1CC1c1ccc(/C=C(\C#N)C(=O)Nc2cccc(Cl)c2Cl)o1 (configuration not stated) | 22.5
* O=C1CCNc2ccc(-c3ccccc3)cc21 | 7.84
* O=C(c1ccccc1)c1ccc(O)cc1O | 89.6
* O=C1c2cccc3c(O)ccc(c23)C(=O)N1Cc1ccccc1 | 33.7
* CCN(CC)c1ccc(/C=C2/SC(=O)N(C(C)C)C2=O)o1 | 15.2
* Cc1ccc(/C=C2\CCC3=C2OC(N)=C(C#N)C3c2ccc(C)cc2)cc1 (configuration not stated) | 11
* COc1cc2cc(CN(Cc3cccnc3)C(=O)NCc3ccccc3)c(=O)[nH]c2cc1OC | 324
* N#CC1(C#N)CC(C=O)=C(N)C1(C#N)CC(=O)c1ccc(F)cc1 (configuration not stated) | 18.1
* C[C@H]1CN([C@@H](C)CO)C(=O)c2cccc(NC(=O)c3nc4ccccc4s3)c2O[C@H]1CN(C)C(=O)Nc1ccc(F)cc1 | 12.9
* CCOC(=O)c1c(NC(=S)N2CCN(C)CC2)sc2c1CCN(C(=O)OCC)C2 | 7.96
* O=C(c1ccccc1)c1ccccc1C(=O)c1ccccc1 | 12.7
* CC1=NN(C(=O)c2ccc(Cn3ccc([N+](=O)[O-])n3)cc2)C(O)(C(F)(F)F)C1 (configuration not stated) | 18.8
* CCC(CC)NC(=O)Nc1ccccc1C | 7.62
* CCOc1cc(/C=C(\C#N)c2nc(-c3cccs3)c(NC(C)=O)s2)ccc1O | 0.64
* CC1=NN(C(=O)c2ccccc2-n2cccc2)C(O)(C(F)(F)F)C1 (configuration not stated) | 15.7
* CCCN1C(=O)S/C(=C/c2ccc(N3CCOCC3)o2)C1=O | 94.3
* O=C(c1ccccc1)c1ccncc1 | 5.78
* CC(=O)Nc1sc(/C(C#N)=C/c2ccc(Cl)c(Cl)c2)nc1-c1ccc(C)cc1 | -3.28
* CCN(CC)c1ccc(/C=c2\sc3nnc(-c4ccccc4Cl)n3c2=O)cc1 | 72.8
* CCCCCC(C)NC(=S)NC(=O)c1cc(S(=O)(=O)N2CCOCC2)ccc1C (configuration not stated) | 6.76
* CCOC(=O)c1c(-c2ccccc2Cl)csc1NC(=O)c1cc(S(=O)(=O)N2CCOCC2)ccc1C | 12.7
* CC1=NN(c2ccc(Br)cc2)C(=O)/C1=C/c1ccc(-c2ccccc2C(=O)O)o1 | 10.1
* C[C@H](CO)N1C[C@H](C)[C@@H](CN(C)C(=O)Nc2ccccc2)Oc2ccc(NC(=O)Nc3ccc4c(c3)OCO4)cc2C1=O | 9.67
* CCN(CC)c1ccc(/C=C/C(=O)C2C(=O)C=C(C)OC2=O)cc1 (configuration not stated) | 3.69
* Cc1ccc(NC(=O)c2cc(S(=O)(=O)N3CCCCC3)ccc2N2CCOCC2)cc1S(=O)(=O)N(C)C | 7.6
* O=C(c1ccncc1)N(Cc1ccccc1)Cc1nc2ccccc2c(=O)[nH]1 | 9.24
* Cc1noc(C)c1NC(=O)N(C)C[C@H]1Oc2c(NS(=O)(=O)c3cccs3)cccc2C(=O)N([C@H](C)CO)C[C@@H]1C | 4.83
* N#CC1=C(N)OC2=C(CC/C2=C\c2ccccc2)C1c1ccccc1 (configuration not stated) | 36.3
